# Test system: PC-12
# experiment_notes: Neuroprotective activity in rat PC12 cells assessed as decrease in H2O2-induced cell death at 100 uM incubated for 6 hrs prior to H2O2 challenge measured after 1 hr by MTT assay
# Type: functional, cell-based
Calls of active or inactive are those of the source. The calls are words filed in the database; no cut-off is given here.
Outcomes: true (1) for active, false (0) for inactive

# smiles_input, qualitative_label
data = [
    ("O=C(/C=C/c1ccc(Cl)cc1)O[C@H]1[C@H](O)[C@@H](O)[C@H](OCCc2ccc(O)c(O)c2)O[C@@H]1CO", "true (1)"),
    ("OC[C@H]1O[C@@H](OCCc2ccc(O)c(O)c2)[C@H](O)[C@@H](O)[C@@H]1O", "true (1)"),
    ("COC(=O)[C@]1(OC)C[C@H](O)[C@@H](NC(=O)/C=C/c2ccc(O)c(O)c2)[C@H]([C@H](O)[C@H](O)CO)O1", "true (1)"),
    ("COc1ccc(/C=C/C(=O)O[C@H]2[C@H](O)[C@@H](O)[C@H](OCCc3ccc(O)c(O)c3)O[C@@H]2CO)cc1OC", "false (0)"),
    ("O=C(Cc1ccc(O)c(O)c1)O[C@H]1[C@H](O)[C@@H](O)[C@H](OCCc2ccc(O)c(O)c2)O[C@@H]1CO", "true (1)"),
    ("O=C(/C=C/c1ccc(O)c(O)c1)O[C@H]1[C@H](O)[C@@H](O)[C@H](OCCc2ccc(O)c(O)c2)O[C@@H]1CO", "true (1)"),
    ("O=C(/C=C/c1ccc(O)c(O)c1)OCCc1ccc(O)c(O)c1", "true (1)"),
    ("O=C(/C=C/c1ccc(F)c(F)c1)O[C@H]1[C@H](O)[C@@H](O)[C@H](OCCc2ccc(O)c(O)c2)O[C@@H]1CO", "true (1)"),
]
